Origin of the recorded values: patent US5807869A

targetOrSystem: human GnRH receptor (Homo sapiens)
Sequence (P30968 1-328): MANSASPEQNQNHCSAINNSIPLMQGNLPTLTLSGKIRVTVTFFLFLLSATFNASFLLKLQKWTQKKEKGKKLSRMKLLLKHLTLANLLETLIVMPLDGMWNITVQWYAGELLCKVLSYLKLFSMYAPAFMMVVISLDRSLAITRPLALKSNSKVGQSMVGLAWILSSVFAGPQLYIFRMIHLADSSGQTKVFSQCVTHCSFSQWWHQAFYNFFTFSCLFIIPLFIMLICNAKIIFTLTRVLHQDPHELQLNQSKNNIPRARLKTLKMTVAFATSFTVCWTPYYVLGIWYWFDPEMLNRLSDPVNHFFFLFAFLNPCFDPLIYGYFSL
Counter-ions that a name gives are not always drawn.
assayReadout: IC50 (µM)
Express your answer in µM, writing the number without its unit.

(Q) Requested field: IC50. Item: CCOC(=O)c1cn(Cc2c(F)cccc2F)c2cc(-c3ccc(NC(=O)CC)cc3)c(CN(C)Cc3ccccc3)cc2c1=O [Example 3, hydrochloride]
(A) 0.05
